# System: 15-PGDH (Homo sapiens (Human))
# Protocol details: 15-PGDH inhibitory activity (NADH at 340 nm)
# Type: biochemical
# Assay context: concentration inhibiting 50% of 15-PGDH activity; purified 15-PGDH, 21 μM PGE2, 0.25 mM NAD+
# Method: The 15-PGDH cDNA plasmid containing the BamHI of the pGEX-2T expression vector and EcoRI restriction enzyme sites was transfected into E. coli BL-21 LysS by using conventional methods used in the art. Then, the transfected cells were cultured in an LB medium (500 ml) containing 50 μg/ml of ampicillin at a temperature of 37° C. and at a rate of 220 rpm until the OD600 reached 0.6. […] The concentration of the purified enzyme was measured, and the purification level thereof was confirmed by SDS-PAGE. […]
Readout type: IC50 (nM)
Report the value in nM with no unit label.

Example entries begin here.
{"Smiles string": "O=C(CCCC1CCCCC1)Oc1cccc(/C=C2\\SC(=O)NC2=O)c1Cl", "IC50 [nM]": 22.5}
{"Smiles string": "O=C1NC(=O)/C(=C/c2ccc(OC(=O)C3CC3)cc2Cl)S1", "IC50 [nM]": 1080}
{"Smiles string": "O=C1NC(=O)/C(=C/c2ccc(OC(=O)C3CCC3)c(Br)c2)S1", "IC50 [nM]": 106}

Moving on to the next compound.
Value of IC50 reported for the compound `CCOc1cc(/C=C2\SC(=O)NC2=O)ccc1OC(=O)Cc1ccccc1` is 118

---

# System: UniProtKB P15428
Listed below: IC50 values for each entry.
Unit nM implied. Number only.

Worked cases, answers included:
{"Molecule": "CCOc1cc(/C=C2\\SC(=O)NC2=O)ccc1OC(=O)CC1CCCCC1 [Compound 52]", "IC50 / nM": 32.8}
{"Molecule": "O=C(CCCCC1CCCCC1)Oc1ccc(/C=C2\\SC(=O)NC2=O)c(Cl)c1 [Compound 100]", "IC50 / nM": 39.4}

The reported IC50 value, UniProtKB P15428, for O=C1NC(=O)/C(=C/c2ccc(OC(=O)C3CCCC3)c(Cl)c2)S1 [Compound 3] reads 196

Assay UniProtKB P15428, sample CCOc1cc(/C=C2\SC(=O)NC2=O)ccc1OC(=O)CCCCC1CCCCC1 [Compound 55] , IC50 read: 34.4

Short answer on UniProtKB P15428 for O=C(CCCCC1CCCCC1)Oc1ccc(/C=C2\SC(=O)NC2=O)cc1Br [Compound 25] , IC50: 26.3

---

# System: 15-PGDH (Homo sapiens (Human), UniProt P15428)
# Sequence (P15428 whole entry): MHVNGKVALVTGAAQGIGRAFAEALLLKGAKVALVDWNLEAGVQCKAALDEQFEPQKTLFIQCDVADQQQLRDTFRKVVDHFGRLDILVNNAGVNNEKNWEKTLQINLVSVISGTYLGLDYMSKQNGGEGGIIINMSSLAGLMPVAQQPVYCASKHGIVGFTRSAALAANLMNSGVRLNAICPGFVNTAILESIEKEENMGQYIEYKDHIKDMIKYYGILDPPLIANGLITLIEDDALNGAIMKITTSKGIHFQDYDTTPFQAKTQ
Note to self: use Y only for IC50 readings below 50 nM; a reading exactly at 50 nM still gets N.

A selection of reference data follows.
{"Smiles string": "O=C(O)c1ccccc1.O=C1NC(=O)/C(=C/c2ccc(OC(=O)c3ccccc3)c(Br)c2)S1", "System": "15-PGDH (Homo sapiens (Human), UniProt P15428)", "Discrete label": "Y"}
{"Smiles string": "CCOc1cc(/C=C2\\SC(=O)NC2=O)ccc1OC(=O)CCC1CCCC1", "System": "15-PGDH (Homo sapiens (Human), UniProt P15428)", "Discrete label": "Y"}
{"Smiles string": "CCOc1cc(/C=C2\\SC(=O)NC2=O)ccc1OC(=O)C1CC1", "System": "15-PGDH (Homo sapiens (Human), UniProt P15428)", "Discrete label": "N"}

Exam item: Regarding `O=C(CC1CCCC1)Oc1ccc(/C=C2\SC(=O)NC2=O)cc1` , kindly confirm whether its IC50 is beneath 50 nM.
Marked response: N

---

# System: 15-PGDH (Homo sapiens (Human))
pIC50: −log10 of the molar value.
The label depends only on pIC50: class 1 if it is at least 7, class 0 if it is smaller.

Before answering, review these 6 worked examples.
{"Smiles string": "CCOc1cc(/C=C2\\SC(=O)NC2=O)ccc1OC(=O)C1CCCCC1", "Discrete label": "class 0"}
{"Smiles string": "O=C(CC1CCCC1)Oc1ccc(/C=C2\\SC(=O)NC2=O)cc1Br", "Discrete label": "class 1"}
{"Smiles string": "O=C(O)c1ccccc1.O=C1NC(=O)/C(=C/c2ccc(OC(=O)c3ccccc3)cc2Cl)S1", "Discrete label": "class 1"}
{"Smiles string": "O=C(CCCc1ccccc1)Oc1ccc(/C=C2\\SC(=O)NC2=O)cc1Cl", "Discrete label": "class 1"}
{"Smiles string": "O=C(CCc1ccccc1)Oc1ccc(/C=C2\\SC(=O)NC2=O)cc1", "Discrete label": "class 1"}
{"Smiles string": "O=C(CCc1ccccc1)Oc1ccc(/C=C2\\SC(=O)NC2=O)cc1Cl", "Discrete label": "class 1"}

Exam item: Would you say `COc1cc(/C=C2\SC(=O)NC2=O)ccc1OC(=O)C1CC1` shows pIC50 at minimum 7?
Marked response: class 0

Exam item: Is it the case that `O=C(CCCCc1ccccc1)Oc1cccc(/C=C2\SC(=O)NC2=O)c1Cl` has pIC50 reaching or exceeding 7?
Marked response: class 1

Exam item: Check if pIC50 >= 7 (inclusive). Item: `O=C(CCCCC1CCCCC1)Oc1ccc(/C=C2\SC(=O)NC2=O)cc1`
Marked response: class 1

Exam item: Say whether `O=C(CCCc1ccccc1)Oc1ccc(/C=C2\SC(=O)NC2=O)cc1Br` shows pIC50 of 7 or more.
Marked response: class 1

Exam item: Quick check, pIC50 >= 7? `O=C(CCCc1ccccc1)Oc1cccc(/C=C2\SC(=O)NC2=O)c1Cl`
Marked response: class 1

Exam item: Entry `O=C(CCC1CCCC1)Oc1cccc(/C=C2\SC(=O)NC2=O)c1Cl` : is its pIC50 no less than 7?
Marked response: class 1

Exam item: Does pIC50 meet or surpass 7 for `CCOc1cc(/C=C2\SC(=O)NC2=O)ccc1OC(=O)CCCc1ccccc1` ?
Marked response: class 1

Exam item: Does `O=C(CCCCC1CCCCC1)Oc1ccc(/C=C2\SC(=O)NC2=O)cc1Cl` have a reported pIC50 of at least 7?
Marked response: class 1

Exam item: Assess whether reported pIC50 for `O=C(CC1CCCC1)Oc1ccc(/C=C2\SC(=O)NC2=O)c(Cl)c1` sits at 7 or higher.
Marked response: class 1

Exam item: Would you say `CCOc1cc(/C=C2\SC(=O)NC2=O)ccc1OC(=O)c1ccccc1.O=C(O)c1ccccc1` shows pIC50 at minimum 7?
Marked response: class 0

Exam item: I'd appreciate it if you could say whether `O=C(CC1CCCC1)Oc1cccc(/C=C2\SC(=O)NC2=O)c1Cl` has pIC50 at least equal to 7.
Marked response: class 1

---

This section lists IC50 readings for 15-PGDH (Homo sapiens (Human), UniProt P15428).
# output: number + unit

Examples with their reported IC50 follow.
{"Compound": "O=C1NC(=O)/C(=C/c2ccc(OC(=O)C3CCC3)c(Cl)c2)S1 [Compound 2]", "IC50": "782 nM"}
{"Compound": "COc1cc(/C=C2\\SC(=O)NC2=O)ccc1OC(=O)CCc1ccccc1 [Compound 43]", "IC50": "28.6 nM"}
{"Compound": "COc1cc(/C=C2\\SC(=O)NC2=O)ccc1OC(=O)Cc1ccccc1 [Compound 42]", "IC50": "42.2 nM"}
{"Compound": "O=C(CCCc1ccccc1)Oc1ccc(/C=C2\\SC(=O)NC2=O)cc1 [Compound 74]", "IC50": "50.7 nM"}

Please examine the following record next.
Field IC50 (system: 15-PGDH (Homo sapiens (Human), UniProt P15428)) for entry CCOc1cc(/C=C2\SC(=O)NC2=O)ccc1OC(=O)C1CCC1 [Compound 47] = 1620 nM

---

# System: UniProt P15428
Each record is given 1 if its reported IC50 is strictly below 90 nM. Records at or above 90 nM are given -1.

{"Compound": "O=C(Cc1ccccc1)Oc1cccc(/C=C2\\SC(=O)NC2=O)c1Cl [Compound 87]", "Discrete label": -1}
{"Compound": "O=C(CCCc1ccccc1)Oc1ccc(/C=C2\\SC(=O)NC2=O)c(Cl)c1 [Compound 104]", "Discrete label": 1}
{"Compound": "O=C(Cc1ccccc1)Oc1ccc(/C=C2\\SC(=O)NC2=O)cc1 [Compound 72]", "Discrete label": -1}
{"Compound": "CCOc1cc(/C=C2\\SC(=O)NC2=O)ccc1OC(=O)CCc1ccccc1 [Compound 58]", "Discrete label": -1}

--- query ---
Exam item: Below 90 nM on IC50? Entry O=C(CC1CCCC1)Oc1ccc(/C=C2\SC(=O)NC2=O)cc1Cl [Compound 4]
Marked response: 1
